experiment: clinical; conditions: human, in vivo, T1/2
MEASURED METRIC: half-life
Don't forget the unit after the number, please.

# input What does the record list as half-life for CC(=O)O[C@@]12CO[C@@H]1C[C@H](O)[C@@]1(C)C(=O)[C@H](O)C3=C(C)[C@@H](OC(=O)[C@H](O)[C@@H](NC(=O)OC(C)(C)C)c4ccccc4)C[C@@](O)([C@@H](OC(=O)c4ccccc4)[C@H]21)C3(C)C ?
# output 2710 min
